Tested on: CU-ACC2
assay_protocol: area under concentration-response curve (viability) (AUC (a.u.)); higher = less active
condition_description: 48 h
attribute_measured: area under concentration-response curve
Reply with just the number.

For this molecule ( COc1ccc(C[C@@H](C)[C@@H](C)Cc2ccc(OC)c(OC)c2)cc1OC ), measured area under concentration-response curve is 536

For this molecule ( CC(C)(C)C(=O)CN1C(=O)[C@H](NC(=O)Nc2cccc(C(=O)O)c2)CN(C2CCCCC2)c2ccccc21 ), measured area under concentration-response curve is 612

For this molecule ( COc1cc(C)c(/C=C/C(C)=C/C=C/C(C)=C/C(=O)O)c(C)c1C ), measured area under concentration-response curve is 544

For this molecule ( COc1nc(C)nc(Cl)c1NC1=NCCN1 ), measured area under concentration-response curve is 436

For this molecule ( C1CCC(C(CC2CCCCN2)C2CCCCC2)CC1 (centres undefined) ), measured area under concentration-response curve is 460

For this molecule ( O=C(Nc1cccc(C(F)(F)F)c1)Nc1cc([S+](=O)([O-])NC2CC2)ccc1-c1ccsc1 ), measured area under concentration-response curve is 568

For this molecule ( CCN(CC)CCCC[C@H](NC(=O)[C@H](CC(C)C)NC(=O)[C@H](C)NC(=O)[C@H](Cc1ccccc1)NC(=O)c1ccc(C(C)(C)C)cc1)C(=O)N[C@@H](CO)C(=O)OC ), measured area under concentration-response curve is 424

For this molecule ( Cc1cnc(-c2ccccc2C(C)C)nc1NCc1ccc(-n2ccnn2)cc1 ), measured area under concentration-response curve is 614

For this molecule ( S=P(N1CC1)(N1CC1)N1CC1 ), measured area under concentration-response curve is 590

Each recorded value in this set is attributed to the supplement of paper PMC10949913.
